tested on: CP238; assay: qHTS profiling for inhibitors of Plasmodium falciparum proliferation (AID 504749); also: nearly all actives have a fitted effect of over 60% in size; also: potency is read from the fitted curve at half-maximal effect; conditions: P. falciparum in erythrocytes, SYBR Green DNA, 72 h; series mostly up to 28.7 µM
Results filed as inconclusive are left out. Calls of active or inactive are those of the source. Calls follow the shape of the dose curve; as a rule, active = well fitted inhibition curve with a large enough effect; inconclusive = small, poorly fitted or top-dose-only effect; inactive = flat fitted curve, though single readings scatter.
Experimental Endpoint: Potency

Example compounds with recorded Potency:
NC1=NC(S)C2N=CN=C2N1 (stereo unspecified) | inactive
CC1(C)S[C@@H]2[C@H](NC(=O)COc3ccccc3)C(=O)N2[C@H]1C(=O)O | inactive
C=C[C@]1(C)C[C@@H](OC(=O)CSCCN(CC)CC)[C@]2(C)C(C)CC[C@]3(CCC(=O)[C@H]32)[C@@H](C)[C@@H]1O (stereo partly specified) | 11.2 µM (active)
CC(=O)O[C@@]12CO[C@@H]1C[C@H](O)[C@@]1(C)C(=O)[C@H](O)C3=C(C)[C@@H](OC(=O)C(O)[C@@H](NC(=O)OC(C)(C)C)c4ccccc4)C[C@@](O)([C@@H](OC(=O)c4ccccc4)[C@H]21)C3(C)C (stereo partly specified) | 0.0282 µM (active)
CN(C)CCCCCCN(C)C | inactive
CC1CCC(C(C)C)C(OC(=O)c2ccccc2O)C1 (stereo unspecified) | inactive
CCC(=O)O[C@@H](OP(=O)(CCCCc1ccccc1)CC(=O)N1C[C@H](C2CCCCC2)C[C@H]1C(=O)O)C(C)C (stereo partly specified) | inactive
Cc1cc(CC(C)CC(C)(C)C)n(O)c(=O)c1 (stereo unspecified) | 2.51 µM (active)

Would you kindly share the measured Potency for CO/N=C(/C(=O)N[C@@H]1C(=O)N2C(C(=O)O)=CCS[C@H]12)c1csc(N)n1 ?
inactive

Would you kindly share the measured Potency for C/C=C\c1ccc(OC)cc1 ?
inactive

Would you kindly share the measured Potency for CN1CC[C@H](CN2c3ccccc3Sc3ccccc32)C1 ?
8.91 µM (active)
